Assay Overview: Single dose oral pharmacokinetic study
Assay type: in vivo
Condition Parameters: mouse; Mice oral PK @30 mg/kg; plasma; vehicle 10% Solutol+20% PEG; read-out: Cmax

[
  {
    "Smiles Entry": "CC(C)C1=C2[C@H]3CC[C@@H]4[C@@]5(C)CC[C@H](OC(=O)[C@H]6C[C@@H](C(=O)O)C6(C)C)C(C)(C)[C@@H]5CC[C@@]4(C)[C@]3(C)CC[C@@]2(NC(=O)C(C)(C)NC(=O)c2ccc3[nH]cnc3c2)CC1=O",
    "Unit Name": "ng/mL",
    "Cmax": 8540
  },
  {
    "Smiles Entry": "Cc1ccc(C(=O)NC2(C(=O)N[C@@]34CC[C@]5(C)[C@H](CC[C@@H]6[C@@]7(C)CC[C@H](OC(=O)[C@H]8C[C@@H](C(=O)O)C8(C)C)C(C)(C)[C@@H]7CC[C@]65C)C3=C(C(C)C)C(=O)C4)CCCC2)cn1",
    "Unit Name": "ng/mL",
    "Cmax": 23600
  },
  {
    "Smiles Entry": "CC(C)C1=C2[C@H]3CC[C@@H]4[C@@]5(C)CC[C@H](OC(=O)[C@H]6C[C@@H](C(=O)O)C6(C)C)C(C)(C)[C@@H]5CC[C@@]4(C)[C@]3(C)CC[C@@]2(NC(=O)C(C)(C)NC(=O)c2ccc(N)nc2)CC1=O",
    "Unit Name": "ng/mL",
    "Cmax": 11100
  },
  {
    "Smiles Entry": "Cc1ccc(C(=O)NC(C)(C)C(=O)N[C@@]23CC[C@]4(C)[C@H](CC[C@@H]5[C@@]6(C)CC[C@H](OC(=O)[C@H]7C[C@@H](C(=O)O)C7(C)C)C(C)(C)[C@@H]6CC[C@]54C)C2=C(C(C)C)C(=O)C3)cn1",
    "Unit Name": "ng/mL",
    "Cmax": 45700
  },
  {
    "Smiles Entry": "CC(C)C1=C2[C@H]3CC[C@@H]4[C@@]5(C)CC[C@H](OC(=O)[C@H]6C[C@@H](C(=O)O)C6(C)C)C(C)(C)[C@@H]5CC[C@@]4(C)[C@]3(C)CC[C@@]2(NC(=O)C(C)(C)NC(=O)c2cnccn2)CC1=O",
    "Unit Name": "ng/mL",
    "Cmax": 26000
  },
  {
    "Smiles Entry": "Cc1ccc(NC(=O)NC(C)(C)C(=O)N[C@@]23CC[C@]4(C)[C@H](CC[C@@H]5[C@@]6(C)CC[C@H](OC(=O)[C@H]7C[C@@H](C(=O)O)C7(C)C)C(C)(C)[C@@H]6CC[C@]54C)C2=C(C(C)C)C(=O)C3)cn1",
    "Unit Name": "ng/mL",
    "Cmax": 19300
  },
  {
    "Smiles Entry": "CC(C)C1=C2[C@H]3CC[C@@H]4[C@@]5(C)CC[C@H](OC(=O)[C@H]6C[C@@H](C(=O)O)C6(C)C)C(C)(C)[C@@H]5CC[C@@]4(C)[C@]3(C)CC[C@@]2(NC(=O)C(C)(C)NC(=O)c2cc(C(C)C)n[nH]2)CC1=O",
    "Unit Name": "ng/mL",
    "Cmax": 28600
  },
  {
    "Smiles Entry": "CC(C)C1=C2[C@H]3CC[C@@H]4[C@@]5(C)CC[C@H](OC(=O)[C@H]6C[C@@H](C(=O)O)C6(C)C)C(C)(C)[C@@H]5CC[C@@]4(C)[C@]3(C)CC[C@@]2(NC(=O)C2(NC(=O)c3ccc(Cl)cc3)CCC2)CC1=O",
    "Unit Name": "ng/mL",
    "Cmax": 22900
  }
]
